Reported Anti-CD28 Fab (SEQ ID NOs: 696, 697) signal values for a set of binders
# target: T1, Anti-CD28 Fab (SEQ ID NOs: 696, 697)
# T1 construct: Biotinylated and captured on neutravidin coated plates in the phage ELISA
# T1 sequence (VH, as listed by the source, chain 1 of 2): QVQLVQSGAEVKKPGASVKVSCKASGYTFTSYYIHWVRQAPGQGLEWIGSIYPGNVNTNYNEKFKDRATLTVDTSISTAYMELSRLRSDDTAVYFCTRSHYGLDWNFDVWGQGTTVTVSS
# T1 sequence (VL, as listed by the source, chain 2 of 2): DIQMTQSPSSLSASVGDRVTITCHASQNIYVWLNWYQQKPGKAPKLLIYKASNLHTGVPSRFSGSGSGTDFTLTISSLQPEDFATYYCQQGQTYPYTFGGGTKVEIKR
# measurement-protocol: phage binding ELISA; biotinylated anti-CD28 Fab on neutravidin plate, clonal phage supernatant, anti-M13 HRP detection;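 note: wells pretreated with blocking buffer, either plus or minus CD28 antigen, then given crude phage supernatant briefly without washing in between, then washed before anti-M13 HRP readout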
Just the number, please.

Reference set, count: 6
binder	number
TCSAGATYTWPKCF [Phage-1338]	1.87
YCAGHTEEHYVKCM [Phage-475]	0.62
TCAAGAAWPWPQCL [Phage-1337]	2.23
YCAGHSHEYLAKCE (also called YCAGHSHEYLAKCE) [Phage-477]	0.86
YCAGMSTIQLWLKC [Phage-473]	2.16
TCSAGATWPWPICL [Phage-1334]	2

Request: State the recorded Anti-CD28 Fab (SEQ ID NOs: 696, 697) signal for this entry: YCAGHMPQYEVKCL [Phage-474]
Result: 0.22

Request: State the recorded Anti-CD28 Fab (SEQ ID NOs: 696, 697) signal for this entry: TCAAGATWSWPACF [Phage-1339]
Result: 2.23

Where do these numbers come from? They come from patent US20260242478A1.
